Provenance of the data: patent EP2085394B1

Reported IC100 Giardia intestinalis values follow for various molecules
System: Giardia intestinalis WB strain
Test: Antigiardial activity, tube method
Assay type: cell-based
Settings: 72 hours, (36-37) °C, parasite count
ASSAY ENDPOINT: IC100 Giardia intestinalis (µg/mL)

| LINE NOTATION | TESTED TARGET | MEASURE UNIT | EXPERIMENTAL RESULT |
| --- | --- | --- | --- |
| Cc1ncc([N+](=O)[O-])n1CCN1CCN(CCO)CC1 | Giardia intestinalis WB strain | µg/mL | 0.8 |
| Cc1ncc([N+](=O)[O-])n1CCNS(=O)(=O)c1sc(Cl)cc1Br | Giardia intestinalis WB strain | µg/mL | 0.3 |
| Cc1ncc([N+](=O)[O-])n1CCOc1ccc(C=O)cc1 | Giardia intestinalis WB strain | µg/mL | 0.14 |
| Cc1ncc([N+](=O)[O-])n1CCO | Giardia intestinalis WB strain | µg/mL | 3.2 |
